Biological target: T1, human serum albumin (human, UniProt P02768 25-609)
T1 construct: also called HSA
T1 sequence (P02768 25-609 limits assumed): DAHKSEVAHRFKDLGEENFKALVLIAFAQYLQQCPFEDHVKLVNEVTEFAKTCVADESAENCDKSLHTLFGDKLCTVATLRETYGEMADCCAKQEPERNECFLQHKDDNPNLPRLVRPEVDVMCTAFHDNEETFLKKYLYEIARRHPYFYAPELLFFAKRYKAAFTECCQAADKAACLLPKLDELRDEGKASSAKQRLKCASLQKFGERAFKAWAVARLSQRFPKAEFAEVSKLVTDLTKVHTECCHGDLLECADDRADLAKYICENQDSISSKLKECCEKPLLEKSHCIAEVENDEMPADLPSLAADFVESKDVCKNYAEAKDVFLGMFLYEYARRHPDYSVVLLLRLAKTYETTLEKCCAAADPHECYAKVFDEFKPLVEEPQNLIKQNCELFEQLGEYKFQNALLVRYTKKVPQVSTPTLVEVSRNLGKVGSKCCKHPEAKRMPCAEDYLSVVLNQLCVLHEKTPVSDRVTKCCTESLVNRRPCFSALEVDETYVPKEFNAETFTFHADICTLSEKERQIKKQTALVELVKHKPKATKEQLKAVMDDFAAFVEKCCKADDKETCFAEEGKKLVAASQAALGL
Assay: cradle library selection hit

{"binder": "SEQ ID NO 274 (designed binder) NVSPPRRARVTDATETTITISWRTKTETITGFHVFASPWYSGSQSIQRTIKPDVRSYTITGLQPGTTYYIGLNTLYIPGHEPPVVIDAST", "binding result": "binds"}
{"binder": "SEQ ID NO 170 (designed binder) PLSPPTNLHLEANPDTGVLTVSWERSTTPDITNYLIQTDYFAFIKGVLEEVVHADQSSCTFDNLSPGLYYYVGVDTVSVPSHGPISDTIIP", "binding result": "binds"}
{"binder": "SEQ ID NO 276 (designed binder) NVSPPRRARVTDATETTITISWRTKTETITLFYVYAYPRYYPGIQRTIKPDVRSYTITGLQPGTSYSIYLSTLWDTKGYPVVIDAST", "binding result": "binds"}
